Where these numbers come from: patent US20250197488A1

Target: T1, IL-11 (Cat. 12225-HNCE, Sino Biological Inc.) (UniProt P20809 22-199, limits assumed)
T1 sequence (looked up): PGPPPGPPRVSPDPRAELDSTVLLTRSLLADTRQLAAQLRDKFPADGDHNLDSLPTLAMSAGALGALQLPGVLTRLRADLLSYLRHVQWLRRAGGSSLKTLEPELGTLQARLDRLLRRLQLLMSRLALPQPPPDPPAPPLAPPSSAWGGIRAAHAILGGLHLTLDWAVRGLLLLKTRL
Test: cell-based or functional assay
ENDPOINT_LABEL: Blocking activity (IC50), STAT3-luc reporter (µg/mL)
Expressed in µg/mL, but write only the number.

Study these solved cases before continuing.
Recorded Blocking activity (IC50), STAT3-luc reporter (binder hz18A10-VHm2 + hz18A10-VL (antibody, V domains shown, Constant regions not restated for this antibody) VH: EVQLVQSGAEVKKPGASVKVSCKASGYTFTTYNMDWVRQAPGQGLEWMGTIYPGNGDTSYNQKFKGRVTMTRDTSTSTVYMELSSLRSEDTAVYYCARGDLHYLDYWGQGTLVTVSS VL: DIQMTQSPSSLSASVGDRVTITCKASQSVSNDVAWYQQKPGKAPKLLIYSASNRYTGVPSRFSGSGSGTDFTFTISSLQPEDIATYYCQHDYSSPYTFGQGTKLEIK ): 11.6

Recorded Blocking activity (IC50), STAT3-luc reporter (binder hz8C8-VHm1-m9 + hz8C8-VLm7-m2 (antibody, human IgG1, kappa, V domains shown, human IgG1 constant regions) VH: EVQLVESGGGLVQPGGSLRLSCAASGFTFSSFGMHWVRQAPGKGLEWMGYITPGSNTIYYADTVKGRFTISRDNAKNSLYLQMNSLRAEDTAVYYCAREYYSYDEGFAYWGQGTLVTVSS VL: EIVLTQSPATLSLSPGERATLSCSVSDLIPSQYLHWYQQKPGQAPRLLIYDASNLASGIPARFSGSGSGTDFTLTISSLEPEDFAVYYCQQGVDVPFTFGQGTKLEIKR ): 0.002

Recorded Blocking activity (IC50), STAT3-luc reporter (binder hz8C8-VHm6 + hz8C8-VLm7 (antibody, human IgG1, kappa, V domains shown, human IgG1 constant regions) VH: EVQLVESGGGLVQPGGSLRLSCAASGFTFSSFGMHWVRQAPGKGLEWVAYITPGSSTIYYADTVKGRFTISRDNAKNSLYLQMNSLRAEDTAVYYCAREYYSYDEGFAYWGQGTLVTVSS VL: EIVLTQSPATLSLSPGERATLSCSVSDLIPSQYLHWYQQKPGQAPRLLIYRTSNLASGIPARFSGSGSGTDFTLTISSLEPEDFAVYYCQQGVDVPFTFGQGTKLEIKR ): 0.066

Recorded Blocking activity (IC50), STAT3-luc reporter (binder hz18A10-VHm4 + hz18A10-VLm9 (antibody, V domains shown, Constant regions not restated for this antibody) VH: EVQLVQSGAEVKKPGASVKVSCKASGYTFTTYNIDWVRQAPGQGLEWMGTIYPGNGDTSYNQKFKGRVTMTRDTSTSTVYMELSSLRSEDTAVYYCARGDLYALDYWGQGTLVTVSS VL: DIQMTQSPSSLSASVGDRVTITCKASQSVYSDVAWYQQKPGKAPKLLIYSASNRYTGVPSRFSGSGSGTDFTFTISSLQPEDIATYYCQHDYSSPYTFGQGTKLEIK ): 2.23

Please turn your attention to the following entry.
Recorded Blocking activity (IC50), STAT3-luc reporter (binder hz8C8-VHm1 + hz8C8-VLm4 (antibody, human IgG1, kappa, V domains shown, human IgG1 constant regions) VH: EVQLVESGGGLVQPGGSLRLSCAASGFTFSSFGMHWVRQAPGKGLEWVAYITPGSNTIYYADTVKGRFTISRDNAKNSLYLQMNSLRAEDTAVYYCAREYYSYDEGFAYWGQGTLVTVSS VL: EIVLTQSPATLSLSPGERATLSCSVSDLISSNYLHWYQQKPGQAPRLLIYRTSNLASGIPARFSGSGSGTDFTLTISSLEPEDFAVYYCQQGVDVPFTFGQGTKLEIKR ): 0.098
